The reported measurements were obtained from patent US20230250190A1.

# EC50 annotations
# Measurement target: T1, T11 (Tn-MUC1) (PAPGSTAPPAHGVT(α-GalNAc)SAPDT(α-GalNAc)RPAPG-OH)
# T1 peptide: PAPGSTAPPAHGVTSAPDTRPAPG
# Method: glycopeptide array
I only need the number, in µg/mL, no unit after it.

Binder	EC50 / µg/mL
118 (antibody, V domains shown) VH: QVQLVQSGAEVKKPGASVKVSCKASGYTFTNYYIQWVRQAPGQGLEWMGVINPYDGSTNYAQRFQGKITLTRDTSTTTVYMELSSLGSEDTAVYYCARDYMIGYVVFDYWGQGTMVTVSS	0.143
90 (antibody, V domains shown) VH: QVQLVQSGAEVKKPGASVKVSCKASGYTFINHYIHWVRQAPGQGLEWMGVINPFDGSTNYAQKFQGRVTVTRDTSTSTVFLDLSSLRSEDTAVYYCARDNMIGYVLFDYWGQGTLVTVSS	0.126
74 (antibody, V domains shown) VH: QVQLVQSGAEVKKPGASVQVSCKASGYTFINYYLQWVRQAPGQGLEWMGTINPFDGSTHYEQNFQGRVTMTRDTSTNTVYMELNGLRSEDTAVYYCARDHMIGYILFDYWGQGTTVTVSS	0.137

Attention now shifts to the item below.
Inquiry: Please look up its EC50: 182 (antibody, V domains shown) VH: QVQLVQSGAEVKKPGASVKVSCKASGYSFTYSYIQWVRLAPGRGLEWMGVINPYDGSTDYAQKFQGRVTLTRDTSTTTVYMELSSLTSEDTAVYYCARDFMIGYVVFDYWGQGTLVTVSS
Reply text: 0.11
